- Target under test: GST tagged truncated human mutant G2019S LRRK2 (Homo sapiens (Human), UniProt Q5S007, G2019S)
- Sequence (Q5S007 970-2527 G2019S): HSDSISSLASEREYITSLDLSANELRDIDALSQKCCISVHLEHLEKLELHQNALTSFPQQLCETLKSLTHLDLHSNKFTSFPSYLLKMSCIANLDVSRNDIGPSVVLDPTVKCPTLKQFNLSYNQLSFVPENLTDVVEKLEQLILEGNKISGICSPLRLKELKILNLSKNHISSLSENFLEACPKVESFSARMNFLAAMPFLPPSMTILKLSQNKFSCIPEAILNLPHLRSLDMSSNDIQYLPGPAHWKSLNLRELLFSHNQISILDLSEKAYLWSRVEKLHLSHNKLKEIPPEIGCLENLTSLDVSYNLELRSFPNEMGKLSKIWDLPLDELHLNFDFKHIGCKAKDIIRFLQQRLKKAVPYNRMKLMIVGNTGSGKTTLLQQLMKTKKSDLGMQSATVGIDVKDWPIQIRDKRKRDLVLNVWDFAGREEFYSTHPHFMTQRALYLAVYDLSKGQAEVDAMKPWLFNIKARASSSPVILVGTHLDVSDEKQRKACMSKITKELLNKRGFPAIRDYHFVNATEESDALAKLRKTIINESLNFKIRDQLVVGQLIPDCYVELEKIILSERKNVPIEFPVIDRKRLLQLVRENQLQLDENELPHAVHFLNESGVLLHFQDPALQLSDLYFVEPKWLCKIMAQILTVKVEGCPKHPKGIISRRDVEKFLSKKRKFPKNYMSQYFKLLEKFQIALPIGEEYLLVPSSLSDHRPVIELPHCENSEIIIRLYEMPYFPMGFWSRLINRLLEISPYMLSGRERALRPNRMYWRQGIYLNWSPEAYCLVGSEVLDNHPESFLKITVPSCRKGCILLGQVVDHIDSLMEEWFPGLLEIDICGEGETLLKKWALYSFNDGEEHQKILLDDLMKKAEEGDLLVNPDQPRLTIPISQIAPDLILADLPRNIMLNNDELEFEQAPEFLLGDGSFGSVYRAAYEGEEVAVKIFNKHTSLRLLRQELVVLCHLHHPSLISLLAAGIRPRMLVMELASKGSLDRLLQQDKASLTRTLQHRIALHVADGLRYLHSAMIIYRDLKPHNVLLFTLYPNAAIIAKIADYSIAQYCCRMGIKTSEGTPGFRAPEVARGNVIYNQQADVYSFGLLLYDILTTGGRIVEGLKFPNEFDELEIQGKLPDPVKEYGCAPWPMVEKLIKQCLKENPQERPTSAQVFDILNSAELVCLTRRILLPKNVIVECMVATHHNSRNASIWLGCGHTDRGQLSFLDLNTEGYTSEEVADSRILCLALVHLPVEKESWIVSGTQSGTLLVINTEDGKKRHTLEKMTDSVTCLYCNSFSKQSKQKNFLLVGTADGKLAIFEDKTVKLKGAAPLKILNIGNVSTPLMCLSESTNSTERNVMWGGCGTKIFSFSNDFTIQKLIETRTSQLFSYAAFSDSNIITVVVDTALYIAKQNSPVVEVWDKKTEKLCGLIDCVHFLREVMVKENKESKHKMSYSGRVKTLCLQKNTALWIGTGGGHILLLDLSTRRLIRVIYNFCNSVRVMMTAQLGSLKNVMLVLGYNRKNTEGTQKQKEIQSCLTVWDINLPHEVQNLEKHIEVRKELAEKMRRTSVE
- Assay procedure: LRRK2 Km ATP LanthaScreen Assay
- Format: biochemical
- Applied conditions: G2019S LRRK2, 134 μM ATP (Km ATP), mean values
Assay endpoint: LRRK2 pIC50
Write no unit; give the number alone.

{"Compound": "CC1(N2CCC(c3cc4nc(Nc5cnn(C67CC(C(C)(C)O)(C6)C7)c5)ncc4cc3Cl)CC2)COC1", "LRRK2 pIC50": 9.17}
{"Compound": "Cc1c(Nc2ncc3cc(Cl)c([C@@H]4CCN([C@@H]5COC[C@@H]5O)C[C@H]4F)cc3n2)cnn1C12CC(C1)C2 (single isomer, unassigned)", "LRRK2 pIC50": 8.92}

Would you kindly look at the next entry?
Field LRRK2 pIC50 (entry Cc1cc2cnc(Nc3cnn(CC(C)(C)O)c3C)nc2cc1[C@H]1CCN(C2COC2)C[C@@H]1F (single isomer, unassigned) ) reads 8.68

----------
- Target under test: GST tagged truncated human mutant G2019S LRRK2 (Homo sapiens (Human), UniProt Q5S007, G2019S)
- Assay procedure: LRRK2 Km ATP LanthaScreen Assay
- Format: biochemical
- Applied conditions: G2019S LRRK2, 134 μM ATP (Km ATP), mean values
Attribute: LRRK2 pIC50

Would you please look over these solved cases?
{"Compound": "Cn1ncc(Nc2ncc3cc(Cl)c([C@@H]4CCN([C@@H]5COC[C@@H]5O)C[C@H]4F)cc3n2)c1C1CC1 (single isomer, unassigned) [Ex-4.239]", "Assay endpoint": "LRRK2 pIC50", "Result": ">9.20"}
{"Compound": "Cc1c(Nc2ncc3cc(Cl)c(C4CCN([C@H]5COC[C@H]5O)CC4)cc3n2)cnn1C (single isomer, unassigned) [Ex-2.67]", "Assay endpoint": "LRRK2 pIC50", "Result": ">9.20"}

Field LRRK2 pIC50 (entry CC1(N2CCC(c3cc4nc(Nc5cnn(C67CC(CO)(C6)C7)c5)ncc4cc3Cl)CC2)COC1 [Ex-2.57] ) reads >9.20

----------
- Target under test: GST tagged truncated human mutant G2019S LRRK2 (Homo sapiens (Human), UniProt Q5S007, G2019S)
- Assay procedure: LRRK2 Km ATP LanthaScreen Assay
- Assay type: biochemical
- Applied conditions: G2019S LRRK2, 134 μM ATP (Km ATP), mean values
Assay endpoint: LRRK2 pIC50
Write no unit; give the number alone.

Would you please look over these solved cases?
{"Molecule": "Clc1cc2cnc(Nc3cnn(C4CC4)c3Cl)nc2cc1C1CCN(C2COC(C3CC3)C2)CC1 (single isomer, unassigned) [Ex-4.166]", "LRRK2 pIC50": 9.17}
{"Molecule": "Cn1ncc(Nc2ncc3cc(Cl)c([C@@H]4CCN([C@@]5(C)COC[C@H]5O)C[C@H]4F)cc3n2)c1Cl (single isomer, unassigned) [Ex-4.234]", "LRRK2 pIC50": 7.23}
{"Molecule": "CC1OCC1N1CC[C@H](c2cc3nc(Nc4cnn(CC(C)(C)O)c4Cl)ncc3cc2Cl)[C@@H](F)C1 (single isomer, unassigned) [Ex-4.74]", "LRRK2 pIC50": 9.19}

Would you kindly look at the next entry?
Field LRRK2 pIC50 (entry OC1COCC1n1ncc(Nc2ncc3cc(Cl)c(C4CCN(C5COC5)CC4)cc3n2)c1Cl (stereo not drawn) [Ex-2.48] ) reads 8.77

----------
Attribute: LRRK2 pIC50
- Target under test: GST tagged truncated human mutant G2019S LRRK2 (Homo sapiens (Human), UniProt Q5S007, G2019S)
- Assay procedure: LRRK2 Km ATP LanthaScreen Assay
- Type: biochemical
- Applied conditions: G2019S LRRK2, 134 μM ATP (Km ATP), mean values
Write no unit; give the number alone.

{"Compound": "Cc1cc(Nc2ncc3cc(Cl)c(C4CCN(C5COCC5O)CC4F)cc3n2)n(C)n1 (single isomer, unassigned) [Ex-4.236]", "Assay endpoint": "LRRK2 pIC50", "Numeric result": 6.61}

Field LRRK2 pIC50 (entry Cc1c(Nc2ncc3cc(Cl)c(C4CCN([C@]5(C)COC[C@@H]5O)CC4)cc3n2)cnn1C (single isomer, unassigned) [Ex-2.77] ) reads 8.01

----------
- Target under test: GST tagged truncated human mutant G2019S LRRK2 (Homo sapiens (Human), UniProt Q5S007, G2019S)
- Assay procedure: LRRK2 Km ATP LanthaScreen Assay
- Type: biochemical
- Applied conditions: G2019S LRRK2, 134 μM ATP (Km ATP), mean values
Assay endpoint: LRRK2 pIC50
Write no unit; give the number alone.

Would you please look over these solved cases?
{"Compound": "Clc1cc2cnc(Nc3cnn(C4CC4)c3Cl)nc2cc1C1CC2COCC(C1)N2C1COC1 (stereo not shown)", "Numeric result": 8.11}
{"Compound": "CN1CCC(c2cc3nc(Nc4cnn(CC(C)(C)O)c4Cl)ncc3cc2Cl)CC1", "Numeric result": 8.92}
{"Compound": "Cc1nsc(Nc2ncc3cc(Cl)c([C@@H]4CCN(C5COC[C@H]5O)C[C@H]4F)cc3n2)c1Cl (single isomer, unassigned)", "Numeric result": 8.92}

Would you kindly look at the next entry?
Field LRRK2 pIC50 (entry Cc1cc(Nc2ncc3cc(Cl)c(C4CCN([C@]5(C)COC[C@@H]5O)CC4)cc3n2)n(C2CC2)n1 (single isomer, unassigned) ) reads 9.12

----------
Attribute: IC50
- Target under test: GST tagged truncated human mutant G2019S LRRK2 (Homo sapiens (Human), UniProt Q5S007, G2019S)
- Assay procedure: LRRK2 Km ATP LanthaScreen Assay
- Format: biochemical
- Applied conditions: G2019S LRRK2, 134 μM ATP (Km ATP), mean values; read-out: LRRK2 pIC50 (converted)
Give the value, in units of pM, as a plain number.

Would you please look over these solved cases?
{"Compound": "Cc1c(Nc2ncc3cc(Cl)c(C4CCN(C5COC5)[C@H](C)C4)cc3n2)cnn1C1CC1 (single isomer, unassigned) [Ex-1.13]", "IC50 / pM": 776}
{"Compound": "CC(C)(O)CN1CCC(c2cc3nc(Nc4cnn(C5CC5)c4)ncc3cc2Cl)C1 (single isomer, unassigned) [Ex-1.4]", "IC50 / pM": 24000}
{"Compound": "Cc1c(Nc2ncc3cc(Cl)c(C4CCN(C5COC5)CC4)cc3n2)cnn1C12CC(C1)C2 [Ex-2.21]", "IC50 / pM": 676}
{"Compound": "Cc1c(Nc2ncc3cc(Cl)c(C4CCN(C5COC5)CC4)cc3n2)cnn1C1CCOC1 (single isomer, unassigned) [Ex-2.24]", "IC50 / pM": 741}
{"Compound": "CC1(N2CCC(n3cc(Nc4ncc5cc(Cl)c(C6CC67CC7)cc5n4)cn3)CC2)COC1 (single isomer, unassigned) [Ex-2.5]", "IC50 / pM": 2190}
{"Compound": "Clc1cc2cnc(Nc3cnn(C4CC4)c3Cl)nc2cc1C1CCN(C2COC3(CCC3)C2)CC1 (single isomer, unassigned) [Ex-4.114]", "IC50 / pM": 10000}

Field IC50 (entry CC1(C)CC(N2CCC(c3cc4nc(Nc5cnn(C6CC6)c5Cl)ncc4cc3Cl)CC2)CO1 (single isomer, unassigned) [Ex-4.116] ) reads 4470

Field IC50 (entry Cc1c(Nc2ncc3cc(Cl)c(C4CCN(CC(O)c5ccc(Cl)cc5)CC4)cc3n2)cnn1C1CC1 (single isomer, unassigned) [Ex-4.225] ) reads 21400

Field IC50 (entry Cc1c(Nc2ncc3cc(Cl)c(C4CCN(C5(C)COC5)CC4)cc3n2)cnn1C1CCOC1 (single isomer, unassigned) [Ex-2.25] ) reads 891

----------
Attribute: IC50
- Target under test: GST tagged truncated human mutant G2019S LRRK2 (Homo sapiens (Human), UniProt Q5S007, G2019S)
- Assay procedure: LRRK2 Km ATP LanthaScreen Assay
- Type: biochemical
- Applied conditions: G2019S LRRK2, 134 μM ATP (Km ATP), mean values; read-out: LRRK2 pIC50 (converted)
Give the value, in units of nM, as a plain number.

{"Compound": "CC1(N2CC3(CC(n4cc(Nc5ncc6cc(Cl)c(C7CC78CC8)cc6n5)cn4)C3)C2)COC1 (single isomer, unassigned) [Ex-2.7]", "IC50 (nM)": 0.813}
{"Compound": "CC1(N2CCC(n3ncc(Nc4ncc5cc(Cl)c(C6CC67CCC7)cc5n4)c3Cl)CC2)COC1 (single isomer, unassigned) [Ex-2.9]", "IC50 (nM)": 36.3}
{"Compound": "CCn1ncc(Nc2ncc3cc(Cl)c(C4CC45CC5)cc3n2)c1C (single isomer, unassigned) [Ex-1.1]", "IC50 (nM)": 11.7}

Field IC50 (entry CO[C@@H]1COC[C@]1(C)N1CCC(c2cc3nc(Nc4cnn(C5CC5)c4C)ncc3cc2Cl)CC1 (single isomer, unassigned) [Ex-7.3] ) reads 11.7

Reference for the values: patent US12540131B2
